System: Glioma SNB19V (MGMT−)
ASSAY NAME: MTT assay for 7-day toxicity assay
Assay type: cell-based
MEASUREMENT PARAMETERS: Glioma SNB19V (MGMT−); 7-day MTT; single determinations; read-out: GI50
READOUT LABEL: GI50 (µM)
One number for each entry, in µM.

Some compounds with known GI50 results, for comparison:
{"COMPOUND": "NC(=O)c1ncn2c(=O)n(Cc3ccsc3)nnc12 [CC-001]", "UNIT": "µM", "GI50": 117}
{"COMPOUND": "CSCn1nnc2c(C(N)=O)ncn2c1=O [KK-001]", "UNIT": "µM", "GI50": 96.5}
{"COMPOUND": "CSCCn1nnc2c(C(N)=O)ncn2c1=O [KK-002]", "UNIT": "µM", "GI50": 321}

Provide each entry's GI50 from the list below.
1. CNC(=O)Cn1nnc2c(C(N)=O)ncn2c1=O [JJ-002]
2. CCOC(=O)CCn1nnc2c(C(N)=O)ncn2c1=O [LL-002]
3. NC(=O)c1ncn2c(=O)n(CC3CCCC3)nnc12 [GG-002]

Solution:
58.1
288
751
